procedure summary: Oral absorption test in rats under a fed condition (plasma concentration)
Format: in vivo
details: rat, plasma, po, 30 mg/kg, rats, fed, oral 30 mg/kg, medium PEG 400: Water (4:1)
quantity kind: AUC(0-inf) (ng·h/mL)

[
  {
    "smiles string": "CC(C)c1cc(O)cc(C(C)C)c1NC(=O)CN1CCN(CCSc2nc3cccc(C(F)(F)F)c3o2)CC1.Cl",
    "measure unit": "ng·h/mL",
    "value measured": 486
  }
]

---

procedure summary: Oral absorption test in rats under a fed condition (plasma concentration)
Assay type: in vivo
details: rat, 30 mg/kg, medium PEG 400:DMSO = 5:1

[
  {
    "smiles string": "CCOCCOc1cc(C(C)C)c(NC(=O)CN2CCN(CCSc3nc4ccccc4o3)CC2)c(C(C)C)c1",
    "Cmax [ng/mL]": 14.8
  }
]
